All figures here come from patent US20070105771A1.

target: T1, human CD26-derived 13 mer peptide 103 (human); assay: peptide microarray
T1 peptide: VRVPYPKAGAVNP
outcome_measure: Mean Signal Value

binder: rhuMAb 411 (antibody, human IgG1, kappa, V domains shown, also called X411) VH: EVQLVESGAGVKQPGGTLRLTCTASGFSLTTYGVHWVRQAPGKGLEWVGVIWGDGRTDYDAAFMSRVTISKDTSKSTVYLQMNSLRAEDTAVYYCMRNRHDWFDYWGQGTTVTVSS VL: DILLTQSPSSLSATPGERATITCRASQGIRNNLNWYQQKPGQAPRLLIYYSSNLQSGVPSRFSGSGSGTDFTLTISRLQPEDVAAYYCQQSIKLPFTFGSGTKVEIKR
outcome_measure: Mean Signal Value
result: 0

binder: rhuMAb 412 (antibody, human IgG1, V domains shown, X385 VH and X380 VL with human IgG1 and human kappa constant regions; also called X412) VH: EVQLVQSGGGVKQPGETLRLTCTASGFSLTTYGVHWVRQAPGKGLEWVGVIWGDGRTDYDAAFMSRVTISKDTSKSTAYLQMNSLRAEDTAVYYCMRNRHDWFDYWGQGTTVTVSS VL: EIEMTQSPSSLSVSAGERATISCSASQDIRNSLNWYQQKPGQAPRLLIYYSSNLHTGVPARFSGSGSGTDFTLTISRLEPEDVAIYYCQQSNKLPLTFGSGTKVEIKR
outcome_measure: Mean Signal Value
result: 0

binder: rhuMAb 420 (antibody, human IgG1, V domains shown, X420 VH and X380 VL with human IgG1 and human kappa constant regions; also called X420 (IgG1)) VH: EVQLVESGGGVKQPGETLRLTCTASGFSLSTYGVHWVRQAPGKGLEWVGVIWGDGRTDYDAAFMSRVTISKDTSKSTVYLQMNSLRAEDTAVYYCMRNRHDWFDYWGQGTTVTVSS VL: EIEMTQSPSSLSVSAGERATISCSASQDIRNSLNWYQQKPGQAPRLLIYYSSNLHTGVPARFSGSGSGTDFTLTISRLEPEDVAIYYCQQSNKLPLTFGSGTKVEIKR
outcome_measure: Mean Signal Value
result: 0
